# Target Entity: LYN (Homo sapiens (Human))
# Sequence (P07948 whole entry, species assumed): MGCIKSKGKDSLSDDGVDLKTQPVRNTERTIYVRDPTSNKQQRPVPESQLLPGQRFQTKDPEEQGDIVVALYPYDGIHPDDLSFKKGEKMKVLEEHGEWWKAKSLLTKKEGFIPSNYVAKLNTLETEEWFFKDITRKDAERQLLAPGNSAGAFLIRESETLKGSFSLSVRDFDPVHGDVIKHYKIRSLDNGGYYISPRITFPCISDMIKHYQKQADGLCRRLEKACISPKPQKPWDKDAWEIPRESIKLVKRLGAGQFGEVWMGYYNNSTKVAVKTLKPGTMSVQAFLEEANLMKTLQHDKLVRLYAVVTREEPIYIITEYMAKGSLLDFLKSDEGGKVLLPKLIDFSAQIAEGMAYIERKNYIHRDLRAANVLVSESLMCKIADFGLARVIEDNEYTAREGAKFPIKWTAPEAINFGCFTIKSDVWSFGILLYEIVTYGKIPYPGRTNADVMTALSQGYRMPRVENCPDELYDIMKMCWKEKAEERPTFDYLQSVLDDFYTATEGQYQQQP
pIC50: −log10 of the molar value.

- Molecule: "COc1cc(Oc2ccccn2)ccc1-c1ccc2ncc3ncn(-c4ccc(CC#N)cc4)c3c2c1 [compound (B)]"
  pIC50: 7.52

----------
# maps each entry to its IC50
# Target Entity: UniProt Q02750
# Sequence (Q02750 whole entry): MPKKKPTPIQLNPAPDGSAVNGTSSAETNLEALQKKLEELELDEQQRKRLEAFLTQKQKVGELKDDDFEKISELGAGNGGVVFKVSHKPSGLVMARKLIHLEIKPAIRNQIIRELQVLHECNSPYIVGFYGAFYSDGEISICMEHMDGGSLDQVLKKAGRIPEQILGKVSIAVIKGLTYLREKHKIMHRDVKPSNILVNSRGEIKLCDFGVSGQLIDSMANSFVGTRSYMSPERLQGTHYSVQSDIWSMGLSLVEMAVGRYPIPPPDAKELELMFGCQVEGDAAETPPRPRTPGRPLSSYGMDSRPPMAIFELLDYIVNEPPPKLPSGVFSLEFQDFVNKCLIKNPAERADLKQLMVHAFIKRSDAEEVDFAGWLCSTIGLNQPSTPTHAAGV
# Recorded Conditions: read-out: MEK1 1 mM ATP IC50, BRAF-MEK-ERK cascade
Experimental Endpoint: IC50 (nM)

- Compound: "Cc1nc2cnc3cc(F)c(-c4ccc(Oc5ncccn5)cc4Cl)cc3c2n1[C@@H]1CCN(C(=O)CO)C[C@H]1F [Example 1B]"
  Result Number: 138
- Compound: "Cc1nc2cnc3cc(F)c(-c4ccc(Oc5ncccn5)cc4Cl)cc3c2n1[C@H]1CCN(C(=O)CO)C[C@@H]1F [Example 1A]"
  Result Number: 5
